Data provenance is ChEMBL document CHEMBL1961873.

system: Ephrin type-B receptor 4 (Homo sapiens);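 further: each value is a mean percent inhibition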
Sequence (whole entry): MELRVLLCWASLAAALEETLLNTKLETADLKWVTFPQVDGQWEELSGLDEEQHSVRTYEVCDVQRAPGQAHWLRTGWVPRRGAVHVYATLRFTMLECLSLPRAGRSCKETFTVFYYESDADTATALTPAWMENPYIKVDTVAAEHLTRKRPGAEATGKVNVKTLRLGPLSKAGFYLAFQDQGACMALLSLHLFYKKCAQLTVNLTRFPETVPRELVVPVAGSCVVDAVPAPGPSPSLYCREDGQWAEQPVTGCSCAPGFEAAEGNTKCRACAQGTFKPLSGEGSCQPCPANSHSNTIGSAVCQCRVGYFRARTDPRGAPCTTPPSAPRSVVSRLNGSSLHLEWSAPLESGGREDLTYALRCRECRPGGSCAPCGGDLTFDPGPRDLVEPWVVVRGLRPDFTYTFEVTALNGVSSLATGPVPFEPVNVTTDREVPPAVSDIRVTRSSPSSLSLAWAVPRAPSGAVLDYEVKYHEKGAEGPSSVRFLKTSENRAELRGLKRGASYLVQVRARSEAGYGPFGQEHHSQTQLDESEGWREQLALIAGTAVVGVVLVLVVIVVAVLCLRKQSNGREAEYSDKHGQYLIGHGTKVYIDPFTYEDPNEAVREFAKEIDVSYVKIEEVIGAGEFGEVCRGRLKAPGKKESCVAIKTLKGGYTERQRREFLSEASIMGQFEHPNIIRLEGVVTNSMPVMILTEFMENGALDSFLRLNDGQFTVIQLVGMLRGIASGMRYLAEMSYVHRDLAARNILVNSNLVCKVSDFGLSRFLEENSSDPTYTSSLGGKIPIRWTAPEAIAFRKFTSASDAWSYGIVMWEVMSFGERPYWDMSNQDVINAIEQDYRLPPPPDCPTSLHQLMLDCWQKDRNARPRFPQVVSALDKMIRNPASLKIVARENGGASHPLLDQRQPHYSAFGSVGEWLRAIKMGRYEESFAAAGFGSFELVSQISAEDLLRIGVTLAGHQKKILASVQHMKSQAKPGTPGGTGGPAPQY
run-conditions: at 0.1 µM

# chemical-smiles, inhibition / %
records = [
    ("COc1ccc(C2=C(N3CCc4ccccc43)C(=O)NC2=O)cc1", 3.74),
    ("CS(=O)(=O)CCNCc1cc(-c2cc3c(Nc4ccc(OCc5cccc(F)c5)c(Cl)c4)ncnc3s2)cs1", -0.19),
    ("C[C@@H](Oc1cc(-n2cnc3ccc(OCC4CCN(C)CC4)cc32)sc1C(N)=O)c1ccccc1Cl", 5.24),
    ("CNC(=O)c1cncc(/C=C/c2c(C)cccc2C)c1", 7.98),
    ("CCS(=O)(=O)c1ccc(OC)c(Nc2ncc(-c3ccccc3Cl)o2)c1", 1.77),
    ("Fc1ccc(-c2ncn(CCCN3CCOCC3)c2-c2ccncc2)cc1", 0.93),
    ("Cc1ccc(NC(=O)c2ccoc2)cc1-c1ccc(C(=O)NCC2CC2)cc1", 0.88),
    ("O=C(NCC1CC1)c1ccc(-c2cccc(C(=O)NC3CC3)c2)cc1", 1.37),
    ("O=C(Nc1ccc(Oc2ccc3[nH]c(NC(=O)c4ccccc4)nc3c2)cc1)Nc1cc(C(F)(F)F)ccc1F", 3.63),
    ("NS(=O)(=O)c1ccc(Nc2cc(-c3ccc(O)c(F)c3)n[nH]2)cc1", -0.68),
    ("NS(=O)(=O)c1ccc(N/N=C2\\C(=O)Nc3ccc(-c4cnco4)cc32)cc1", -2.49),
    ("CCN(CC)Cc1ccc(Nc2nccc(-c3cnn4ncccc34)n2)cc1", 1.62),
    ("C#Cc1cccc(Nc2ncnc3ccc(OCCCCNCCS(C)(=O)=O)cc23)c1", 1.68),
    ("O=C(Nc1n[nH]c2nc(-c3ccc(O)cc3)c(Br)cc12)C1CC1", 7.91),
    ("COc1cc(Nc2ncc3c(C)nc(-c4cccc(Oc5ccccc5)c4)n3n2)cc(OC)c1OC", 2.59),
    ("c1ccc(Oc2ccc(Nc3ncc(-c4ccccc4)o3)cc2)cc1", 2.42),
    ("CN(C)CCOc1ccc(-c2cc(-c3ccc4c(c3)CCC4=NO)c(-c3ccncc3)o2)cc1", 0.06),
    ("COc1ccc2cc(-c3c(-c4ccncc4)nc(-c4ccc(S(C)(=O)=O)cc4C)n3C)ccc2c1", 4.32),
    ("COc1cc(Nc2ncc3c(C)nc(-c4cccc(C(F)(F)F)c4)n3n2)cc(OC)c1OC", 5.85),
]
